System: L1210 leukemia ip in BDF1 mice, survival T/C
Experiment: NCI In Vivo Anticancer Drug Screen. Data for tumor model L1210 Leukemia (intraperitoneal) in B6D2F1 (BDF1) mice
Settings: endpoint: mean survival time; dose: 12.5 mg/kg/injection; schedule: Q01DX009 (ip); vehicle: saline; higher = longer survival
Toxic doses and inconclusive results are not listed.
Please provide measured T/C for the entries that follow.

Known results for molecules:
[[record]]
molecule = "NC(=O)c1ccc[n+](CCO)c1"
measured_on = "L1210 leukemia ip in BDF1 mice, survival T/C"
measured_parameter = "T/C"
measured_result = "98 % of control"

[[record]]
molecule = "NC(N)=Nc1nc2ccccc2s1"
measured_on = "L1210 leukemia ip in BDF1 mice, survival T/C"
measured_parameter = "T/C"
measured_result = "94 % of control"

[[record]]
molecule = "CN(C)CCCN1c2ccccc2S(=O)c2ccc(Cl)cc21 (stereo unspecified)"
measured_on = "L1210 leukemia ip in BDF1 mice, survival T/C"
measured_parameter = "T/C"
measured_result = "96 % of control"


Would you be so kind as to report T/C for each listed record?
1. Cc1cn(C2CC(F)C(CO)O2)c(=O)[nH]c1=O (stereo unspecified)
2. CN1CCN(C(c2ccccc2)c2ccc(Cl)cc2)CC1 (stereo unspecified)
3. NCCc1ccc(OCc2ccccc2)c(OCc2ccccc2)c1

a:
["108 % of control", "92 % of control", "108 % of control"]
